Here the recorded PBM binding z-score is given for each entry.
Test system: RXRa homodimer (NR concentration 180 nM)
ASSAY_TEXT: PBM binding z-score (relative to random genomic background probes); higher = stronger binding; sequences stand for … in GC…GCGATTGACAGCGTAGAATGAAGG

Examples with their reported PBM binding z-score follow.
CCTACTGGGCCAAAGAGGTCATTGATGCCGATAA | 4.45
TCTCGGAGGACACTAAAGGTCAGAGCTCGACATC | 3.98
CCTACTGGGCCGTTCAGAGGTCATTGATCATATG | 3.46
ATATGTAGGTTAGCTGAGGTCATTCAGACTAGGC | 4.53
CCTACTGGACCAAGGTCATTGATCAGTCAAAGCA | 3.39

[in] What value of measured PBM binding z-score is listed for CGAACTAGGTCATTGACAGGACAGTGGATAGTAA ?
[out] 2.59

[in] Query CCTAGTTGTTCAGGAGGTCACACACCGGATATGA next
[out] 4.73

[in] Query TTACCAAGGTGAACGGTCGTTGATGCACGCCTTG next
[out] 1.24

[in] Now the same for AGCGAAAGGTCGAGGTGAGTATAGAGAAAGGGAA
[out] 4.46

[in] Same question, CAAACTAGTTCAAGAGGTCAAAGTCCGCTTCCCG this time
[out] 7.43

[in] Now the same for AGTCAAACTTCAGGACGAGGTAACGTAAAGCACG
[out] 0.511

[in] Also check CGAACTAGGTCAAAGGACATTGAAAGGCGACGTA
[out] 3.33

----------
Test system: LXRb:RXRa (NR concentration 270 nM, RXRa partner concentration 90 nM)
ASSAY_TEXT: PBM binding z-score (relative to random genomic background probes); higher = stronger binding; sequences stand for … in GC…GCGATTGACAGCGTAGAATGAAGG
# binning rule on PBM binding z-score: low (below 2), moderate (2 to below 4), high (4 or more)

Examples from the recorded data:
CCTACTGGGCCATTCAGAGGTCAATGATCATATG | moderate
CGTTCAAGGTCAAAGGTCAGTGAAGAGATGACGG | high
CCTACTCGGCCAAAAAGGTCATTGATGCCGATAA | high

[in] For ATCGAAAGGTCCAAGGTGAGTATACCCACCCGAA , which PBM binding z-score bin applies?
[out] low

[in] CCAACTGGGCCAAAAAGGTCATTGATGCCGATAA ?
[out] high

[in] Repeat for the following sequence: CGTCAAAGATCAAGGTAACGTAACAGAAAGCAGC
[out] low

[in] Now consider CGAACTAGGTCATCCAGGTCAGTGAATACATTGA .
[out] moderate

[in] How about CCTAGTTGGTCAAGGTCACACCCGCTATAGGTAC ?
[out] moderate

[in] Same lookup for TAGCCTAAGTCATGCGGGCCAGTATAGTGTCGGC , please.
[out] low

[in] Now give it for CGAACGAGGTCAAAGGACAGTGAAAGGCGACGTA too.
[out] high

----------
System: PPARg DBDmut IVT, anti-PPARg (DBD mutation: PPARg1 K132A/R137A, NR concentration 270 nM)
ASSAY_TEXT: PBM binding z-score (relative to random genomic background probes); higher = stronger binding; sequences stand for … in GC…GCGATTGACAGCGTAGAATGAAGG
VALUE_TYPE: PBM binding z-score
Respond using a number only.

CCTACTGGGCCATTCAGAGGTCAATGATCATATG | -0.339
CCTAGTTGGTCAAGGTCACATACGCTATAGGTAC | 1
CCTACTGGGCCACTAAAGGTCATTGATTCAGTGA | 0.225
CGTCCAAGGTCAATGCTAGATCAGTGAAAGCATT | 0.742

[in] Observed PBM binding z-score on PPARg DBDmut IVT, anti-PPARg (DBD mutation: PPARg1 K132A/R137A, NR concentration 270 nM) for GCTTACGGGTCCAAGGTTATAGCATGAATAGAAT , please.
[out] -0.558

[in] Note, next up: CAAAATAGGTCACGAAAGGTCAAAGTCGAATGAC
[out] 4.87

[in] Ok, now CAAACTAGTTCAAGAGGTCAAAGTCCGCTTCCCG
[out] 0.442

[in] Similarly, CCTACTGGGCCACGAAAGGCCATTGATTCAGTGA ?
[out] -0.189

[in] What about this sequence? ACGCGGAGGACAAAGGTCAGAGCTACGCCAGTGA
[out] -0.911

[in] Can you handle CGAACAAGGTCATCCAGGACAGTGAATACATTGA next?
[out] 2.64

These data points were gathered from the supplement of paper PMC6555819.
